Listed here are variants together with their documented protein stability index.
B1: FAM46D (parent)
chain: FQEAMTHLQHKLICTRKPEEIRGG

- Variants of: B1
- runDescription: protein stability index of a GFP-peptide fusion (GPS, HEK-293T) (PSI 1-6); higher = more stable;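 further: lentivirally expressed fusions sorted by FACS into six bins by GFP to DsRed ratio, PSI derived from sequencing read proportions per bin multiplied by bin number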
- reportedConditions: c terminus: a fixed tail appended
parameter: protein stability index

variant | parameter | numericValue
E20F | protein stability index | 2.38
K17F | protein stability index | 2.03
L8C | protein stability index | 3.23
T15Y | protein stability index | 2.17
L12C | protein stability index | 2.84
T15K | protein stability index | 3.42
Q9R | protein stability index | 2.7
G23P | protein stability index | 2.87
